# Tested on: kochia (Bassia scoparia)
# experimental_details: Test C postemergence, visual plant response rating
# Type: in vivo
# particulars: Test C, postemergence, 125 g ai/ha
# Source text: […]
endpoint_name: Kochia plant response rating (0 to 100 scale)
When you answer, write just the number.

Examples with answers:
C#CCO/N=C(/c1cccc(/C=C\Cl)c1)c1c(O)c(C)nn(C)c1=O = 60
CO/N=C(\c1c(O)c(C)nn(C)c1=O)c1cccc2cc(Cl)ccc12 = 50

Record `CC(C)O/N=C(/c1c(O)c(Cl)nn(C)c1=O)c1cc(Br)cc2ccccc12` . Reported Kochia plant response rating (0 to 100 scale): 50

Record `CO/N=C(/c1cccc(/C=C\Cl)c1)c1c(O)c(C)nn(C)c1=O` . Reported Kochia plant response rating (0 to 100 scale): 10

====

Listing of entries alongside the reported Wheat plant response rating (0 to 100 scale).
# Test system: wheat (Triticum aestivum)
# experimental_details: Test C postemergence, visual plant response rating
# Assay type: in vivo
# particulars: Test C, postemergence, 1000 g ai/ha
When you answer, write just the number.

CO/N=C(/c1c(O)cnn(C)c1=O)c1cccc2ccccc12 = 0
CC(C)O/N=C(\c1c(O)cnn(C)c1=O)c1cccc2ccccc12 = 0
C#CCO/N=C(/c1c(O)cnn(C)c1=O)c1cccc2ccccc12 = 60
CO/N=C(\c1c(O)cnn(C)c1=O)c1cccc2ccccc12 = 0

Record `CCO/N=C(/c1c(O)cnn(C)c1=O)c1cccc2ccccc12` . Reported Wheat plant response rating (0 to 100 scale): 0

====

# Tested on: kochia (Kochia scoparia)
# experimental_details: Test A preemergence, visual plant response rating
# Assay type: in vivo
# particulars: 500 g ai/ha Preemergence; approx. 10 days
Listing of entries alongside the reported Kochia plant response rating (0 to 100 scale).
When you answer, write just the number.

C=CCc1ccccc1C(=NOC)c1c(O)c(C)nn(C)c1=O = 30
CO/N=C(/c1cscc1C)c1c(O)c(C)nn(C)c1=O = 0
CO/N=C(/c1ccccc1F)c1c(O)c(C)nn(C)c1=O = 0

Record CON=C(c1c(O)c(C)nn(C)c1=O)c1cccc2ccsc12 (single isomer, unassigned) . Reported Kochia plant response rating (0 to 100 scale): 90

Record `Cc1nn(C)c(=O)c(/C(=N/OC(C)C)c2ccc(F)c3ccccc23)c1O` . Reported Kochia plant response rating (0 to 100 scale): 90

Record CON=C(c1cccc(Cl)c1)c1c(O)c(C)nn(CC2CC2)c1=O (mixture of isomers) . Reported Kochia plant response rating (0 to 100 scale): 0

Record `CO/N=C(\c1c(O)c(C)nn(C)c1=O)c1cc(Br)cc2ccccc12` . Reported Kochia plant response rating (0 to 100 scale): 60

====

# Tested on: blackgrass (Alopecurus myosuroides)
# experimental_details: Test A postemergence, visual plant response rating
# Assay type: in vivo
# particulars: Postemergence, 125 g ai/ha; 0 to 100 scale (0 no effect, 100 complete control)
# Description: […]
Field 'label' (enum: 1 / 0). Set to 1 when Blackgrass plant response rating is strictly under 10; else 0.

Reference set, count: 3
CON=C(c1cccc(F)c1)c1c(O)c(C)nn(C)c1=O [Compound 64] = 1
CON=C(c1c(O)c(C)nn(C)c1=O)c1ccc(OC)c2ccccc12 [Compound 55] = 0
CON=C(c1c(OC(C)=O)c(C)nn(C)c1=O)c1cccc2ccccc12 [Compound 120] = 0

input: Please indicate whether the reported Blackgrass plant response rating of CCc1ccccc1C(=NOC)c1c(O)c(C)nn(C)c1=O [Compound 37] is strictly below 10.
output: 0
